Listing of entries alongside the reported EC50 (log10 M).
# Tested on: DIPGX37 (H3.3 K27M diffuse intrinsic pontine glioma line)
# measurement.description: EC50 (inflection of fitted growth-inhibition curve) (log10 M)
quantity.kind: EC50 (log10 M)

| molecule | reported.measurement |
| --- | --- |
| CN1[C@@H]2CC[C@H]1C[C@@H](OC(=O)c1cc(Cl)cc(Cl)c1)C2 [BEMESETRON] | -5.32 |
| O=C(c1ccccc1)c1ccc2nc(NC(=O)c3csc(C4CCN(c5ncnc6ccsc56)CC4)n3)[nH]c2c1 | -5.87 |
| C[C@@]12OC(=O)[C@]1([C@@H](O)[C@@H]1C=CCCC1)NC(=O)[C@@H]2CCCl [MARIZOMIB] | -6.54 |
| CCCS(=O)(=O)c1nc(NC2CC2)cc(-c2ccc3c(ccn3C3CC(C)(C)NC(C)(C)C3)c2)n1 [NVS-1] | -5.99 |
| CC(=O)OC[C@H]1O[C@@H]([S-])[C@H](OC(C)=O)[C@@H](OC(C)=O)[C@@H]1OC(C)=O.CCP(CC)CC.[Au+] [AURANOFIN] | -6.41 |
| CO[C@H]1C[C@@H]2CC[C@@H](C)[C@@](O)(O2)C(=O)C(=O)N2CCCC[C@H]2C(=O)O[C@H]([C@H](C)C[C@@H]2CC[C@@H](O)[C@H](OC)C2)CC(=O)[C@H](C)/C=C(\C)[C@@H](O)[C@@H](OC)C(=O)[C@H](C)C[C@H](C)/C=C/C=C/C=C/1C [SIROLIMUS] | -4.68 |
| CC(C)NC[C@@H](C(=O)N1CCN(c2ncnc3c2[C@H](C)C[C@H]3O)CC1)c1ccc(Cl)cc1 [IPATASERTIB] | -5.27 |

###

# Tested on: HGGX42 (H3.3 G34R paediatric high-grade glioma line)
# measurement.description: area under dose-response curve of % growth inhibition (log2 RLU vs DMSO / staurosporine), 1e-11 to 1e-4 M (% x log10 M); higher = more growth inhibition
Listing of entries alongside the reported area under dose-response curve.

| compound | area under dose-response curve |
| --- | --- |
| NC(=O)Nc1sc(-c2ccc(F)cc2)cc1C(N)=O | 30.8 |
| O=C([C@@H](Cc1cccc(C(F)(F)F)c1)NS(=O)(=O)c1cc(F)c2c(c1)CCNC2)N1CCCC1 | 0 |
| CC12CC3CC(C)(C1)CC(N)(C3)C2 [MEMANTINE] | 0.942 |
| O=C(c1ccc(Nc2nccc(-c3cc4ccccc4s3)n2)cc1)N1CCC(N2CCCC2)CC1 | 187 |
| Nc1ccccc1NC(=O)c1ccc(CNc2nccc(-c3cccnc3)n2)cc1 | 115 |
| CO[C@H]1C[C@@H]2CC[C@@H](C)[C@@](O)(O2)C(=O)C(=O)N2CCCC[C@H]2C(=O)O[C@H]([C@H](C)C[C@@H]2CC[C@@H](OC(=O)C(C)(CO)CO)[C@H](OC)C2)CC(=O)[C@H](C)/C=C(\C)[C@@H](O)[C@@H](OC)C(=O)[C@H](C)C[C@H](C)/C=C/C=C/C=C/1C | 121 |
| N#CN=C(NCCCCCCOc1ccc(Cl)cc1)Nc1ccncc1 | 315 |
| O=c1ncccn1[C@@H]1O[C@H](CO)[C@@H](O)[C@H]1O | 15.7 |
| CC(C)(C)c1cnc(CSc2cnc(NC(=O)C3CCNCC3)s2)o1 | 216 |
